# credit: patent US10363251B2

Biological target: TLR9 (Homo sapiens, UniProt Q9NR96)
Construct: expressed in transfected cells; host or cells: HEK293
Sequence (Q9NR96 26-1032): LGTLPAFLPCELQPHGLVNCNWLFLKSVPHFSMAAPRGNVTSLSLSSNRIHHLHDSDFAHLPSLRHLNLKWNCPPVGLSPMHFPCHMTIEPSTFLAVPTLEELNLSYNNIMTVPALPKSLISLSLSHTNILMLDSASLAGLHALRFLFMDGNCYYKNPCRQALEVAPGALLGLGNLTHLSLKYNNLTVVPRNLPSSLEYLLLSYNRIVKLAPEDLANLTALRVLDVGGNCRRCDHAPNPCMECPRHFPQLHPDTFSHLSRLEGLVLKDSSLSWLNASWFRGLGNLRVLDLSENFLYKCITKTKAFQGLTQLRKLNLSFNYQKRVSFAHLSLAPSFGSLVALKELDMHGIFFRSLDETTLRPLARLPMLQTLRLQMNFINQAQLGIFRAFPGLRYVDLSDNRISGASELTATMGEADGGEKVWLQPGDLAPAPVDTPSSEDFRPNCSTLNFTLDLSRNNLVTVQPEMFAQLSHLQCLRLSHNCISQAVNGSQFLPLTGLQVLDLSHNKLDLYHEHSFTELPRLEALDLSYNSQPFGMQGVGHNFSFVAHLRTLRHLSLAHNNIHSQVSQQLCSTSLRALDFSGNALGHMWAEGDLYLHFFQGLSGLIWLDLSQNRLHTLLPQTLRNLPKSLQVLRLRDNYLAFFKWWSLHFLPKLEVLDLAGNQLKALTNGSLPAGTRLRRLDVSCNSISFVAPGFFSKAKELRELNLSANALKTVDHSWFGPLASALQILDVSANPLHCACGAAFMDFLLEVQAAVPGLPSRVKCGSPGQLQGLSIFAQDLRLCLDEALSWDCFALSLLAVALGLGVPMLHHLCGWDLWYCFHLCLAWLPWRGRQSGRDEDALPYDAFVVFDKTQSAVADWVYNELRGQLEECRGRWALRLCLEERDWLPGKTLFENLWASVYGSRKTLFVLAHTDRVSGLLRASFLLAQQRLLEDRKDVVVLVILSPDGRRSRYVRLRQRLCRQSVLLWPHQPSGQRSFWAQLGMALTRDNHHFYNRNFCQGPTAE
Experiment: TLR9 screening of (+)-morphinan library, SEAP reporter in HEK293 cells expressing TLR9
Assay type: cell-based
Details: HEK293, read-out: % Inhibition (mean), 100 nM; activator ODN2006
Each entry below carries its reported inhibition at 0.1 µM.
Number only, in %; omit the unit.

COc1cc(-c2ccoc2)c2c3c1O[C@@H]1C(=O)CCC4C(C2)N(CC2CC2)CC[C@]341 (some centres unmarked) [II-26]; 24
COc1ccc2c(c1O)[C@@]13CCN(C)[C@@H](C2)[C@@]1(O)CC(OC)C(=O)C3 (some centres unmarked) [Compound I-9]; -6
COc1ccc2c3c1O[C@@H]1C(NCCO)CC[C@@H]4[C@H](C2)N(C)CC[C@@]314 (some centres unmarked) [II-10]; 83

Next up:
Entry under review: COc1ccc2c3c1O[C@@H]1C(O)CC[C@]4(O)[C@H](C2)N(CC2CCC2)CC[C@@]314 (some centres unmarked) [II-55] . Reported inhibition at 0.1 µM? -3
